# Test details: Selectivity index, ratio of CC50 for HEK293 cells to EC50 for recombinant Ebola virus Mayinga expressing GFP infected in human HeLa cells with ATP6V0a2 KO
# Format: toxicity, cell-based
# Condition: read-out: Ratio CC50/EC50
Observation type: selectivity ratio

Consider the worked cases shown below.
[
  {
    "Compound": "COC(=O)N1CCN(CC(O)COc2c3c(c(-c4ccc5c(c4)OCO5)c4cc(OC)c(OC)cc24)C(=O)OC3)CC1 (stereo not drawn)",
    "Observation type": "selectivity ratio",
    "Assay result": "> 740"
  },
  {
    "Compound": "COc1cc2c(OCCCN3CCN(C=O)CC3)c3c(c(-c4ccc5c(c4)OCO5)c2cc1OC)C(=O)OC3",
    "Observation type": "selectivity ratio",
    "Assay result": "> 610"
  },
  {
    "Compound": "COc1cc2c(OC3CNC3)c3c(c(-c4ccc5c(c4)OCO5)c2cc1OC)C(=O)OC3",
    "Observation type": "selectivity ratio",
    "Assay result": "> 150"
  }
]

Tell me the measured selectivity ratio of COc1cc2c(OC3CCNCC3)c3c(c(-c4ccc5c(c4)OCO5)c2cc1OC)C(=O)OC3 , please.
510

For the compound shown here, COC(=O)N1CCN(CCCOc2c3c(c(-c4ccc5c(c4)OCO5)c4cc(OC)c(OC)cc24)C(=O)OC3)CC1 , give the reported selectivity ratio.
> 110

Value lookup for selectivity ratio; key = COc1cc2c(OCCCN3CC4CCC3CO4)c3c(c(-c4ccc5c(c4)OCO5)c2cc1OC)C(=O)OC3 (stereo not drawn)
> 1200

Look at this compound and give its reported selectivity ratio. COc1cc2c(OCCCN3CC4CCC(C3)N4C)c3c(c(-c4ccc5c(c4)OCO5)c2cc1OC)C(=O)OC3
> 3400

Which measured selectivity ratio value corresponds to COc1cc2c(OCC(O)CN3CC4CCC(C3)N4C)c3c(c(-c4ccc5c(c4)OCO5)c2cc1OC)C(=O)OC3 (stereo not drawn) ?
2000

====

# Test details: Tmax in CD-1 mouse at 50 mg/kg, po by LC-MS/MS analysis
# Type: ADME, organism-based
# Condition: in vivo
Observation type: Tmax (min)
Reply with just the number (in min).

Below, each entry is followed by its recorded Tmax result.
[
  {
    "Molecule": "COc1cc2c(OCCCC#N)c3c(c(-c4ccc5c(c4)OCO5)c2cc1OC)C(=O)OC3",
    "Observation type": "Tmax",
    "Assay result": 30
  },
  {
    "Molecule": "COc1cc2c(O[C@@H]3O[C@H](C)[C@@H](O)[C@H](O)[C@H]3O)c3c(c(-c4ccc5c(c4)OCO5)c2cc1OC)C(=O)OC3",
    "Observation type": "Tmax",
    "Assay result": 15
  },
  {
    "Molecule": "COc1cc2c(OC3CCOC3)c3c(c(-c4ccc5c(c4)OCO5)c2cc1OC)C(=O)OC3 (centres undefined)",
    "Observation type": "Tmax",
    "Assay result": 30
  }
]

Proceeding to the next molecule to report its Tmax.
Dear colleague, I am looking for the recorded Tmax of the following molecule: COc1cc2c(OC3CCNCC3)c3c(c(-c4ccc5c(c4)OCO5)c2cc1OC)C(=O)OC3
120

====

# Assayed target: Voltage-gated inwardly rectifying potassium channel KCNH2 (Homo sapiens)
# Test details: Inhibition of hERG at 10 uM relative to control
# Format: toxicity
Assign criterion met to entries whose inhibition (INH) meets or exceeds 50%; assign criterion not met to the rest.

For orientation, consider the following solved cases.
[
  {
    "Molecule": "COc1cc2c(OC3CNC3)c3c(c(-c4ccc5c(c4)OCO5)c2cc1OC)C(=O)OC3",
    "Assayed target": "Voltage-gated inwardly rectifying potassium channel KCNH2 (Homo sapiens)",
    "Answer label": "criterion met"
  },
  {
    "Molecule": "COc1cc2c(OCC(O)CN3CC4CCC(C3)N4C)c3c(c(-c4ccc5c(c4)OCO5)c2cc1OC)C(=O)OC3 (stereo not drawn)",
    "Assayed target": "Voltage-gated inwardly rectifying potassium channel KCNH2 (Homo sapiens)",
    "Answer label": "criterion met"
  },
  {
    "Molecule": "COc1cc2c(OC3CCOCC3)c3c(c(-c4ccc5c(c4)OCO5)c2cc1OC)C(=O)OC3",
    "Assayed target": "Voltage-gated inwardly rectifying potassium channel KCNH2 (Homo sapiens)",
    "Answer label": "criterion not met"
  }
]

Reported inhibition (INH) reaches at least 50% for COc1cc2c(OCCCN3CCN(C=O)CC3)c3c(c(-c4ccc5c(c4)OCO5)c2cc1OC)C(=O)OC3 ?
criterion not met

Could you tell me if the measured inhibition (INH) of COC(=O)N1CCN(CC(O)COc2c3c(c(-c4ccc5c(c4)OCO5)c4cc(OC)c(OC)cc24)C(=O)OC3)CC1 (stereo not drawn) reaches 50% or more?
criterion not met

Quick check, inhibition (INH) >= 50%? COc1cc2c(OCCCN3CCS(=O)(=O)CC3)c3c(c(-c4ccc5c(c4)OCO5)c2cc1OC)C(=O)OC3
criterion not met

Does the reported inhibition (INH) for COc1cc2c(OCCCN3CC4CCC(C3)N4C)c3c(c(-c4ccc5c(c4)OCO5)c2cc1OC)C(=O)OC3 fall at or above the 50% mark?
criterion met

Evaluate COc1cc2c(OCCCN3CC4CCC3CO4)c3c(c(-c4ccc5c(c4)OCO5)c2cc1OC)C(=O)OC3 (stereo not drawn) : inhibition (INH) at minimum 50%?
criterion met

====

# Test system: HEK293
# Test details: Cytotoxicity against HEK293 cells incubated for 72 hrs by MTT assay
# Type: toxicity, cell-based
# Condition: human, hek293, 72 h
Observation type: CC50

Solved entries (count: 3):
[
  {
    "Molecule": "COc1cc2c(OCCCN3CC4CC3CO4)c3c(c(-c4ccc5c(c4)OCO5)c2cc1OC)C(=O)OC3 (centres undefined)",
    "CC50": "52 µM"
  },
  {
    "Molecule": "COC(=O)N1CCN(CC(O)COc2c3c(c(-c4ccc5c(c4)OCO5)c4cc(OC)c(OC)cc24)C(=O)OC3)CC1 (centres undefined)",
    "CC50": "> 80 µM"
  },
  {
    "Molecule": "COc1cc2c(OC3CCNCC3)c3c(c(-c4ccc5c(c4)OCO5)c2cc1OC)C(=O)OC3",
    "CC50": "> 80 µM"
  }
]

Recorded CC50 of COC(=O)N1CCN(CCCOc2c3c(c(-c4ccc5c(c4)OCO5)c4cc(OC)c(OC)cc24)C(=O)OC3)CC1 , please.
> 80 µM

====

# Test details: Oral bioavailability in ICR mouse at 75 mg/kg by LC-MS/MS analysis
# Type: ADME, organism-based
# Condition: in vivo
Observation type: bioavailability (%)
Express the result in % but write the number alone.

Query (compound): COc1cc2c(O[C@@H]3O[C@H](CO)[C@@H]4OC(C)(C)O[C@@H]4[C@H]3O)c3c(c(-c4ccc5c(c4)OCO5)c2cc1OC)C(=O)OC3 ; field requested: bioavailability
2.5

====

# Assayed target: Voltage-gated inwardly rectifying potassium channel KCNH2 (Homo sapiens, UniProt Q12809)
# Sequence (Q12809 whole entry): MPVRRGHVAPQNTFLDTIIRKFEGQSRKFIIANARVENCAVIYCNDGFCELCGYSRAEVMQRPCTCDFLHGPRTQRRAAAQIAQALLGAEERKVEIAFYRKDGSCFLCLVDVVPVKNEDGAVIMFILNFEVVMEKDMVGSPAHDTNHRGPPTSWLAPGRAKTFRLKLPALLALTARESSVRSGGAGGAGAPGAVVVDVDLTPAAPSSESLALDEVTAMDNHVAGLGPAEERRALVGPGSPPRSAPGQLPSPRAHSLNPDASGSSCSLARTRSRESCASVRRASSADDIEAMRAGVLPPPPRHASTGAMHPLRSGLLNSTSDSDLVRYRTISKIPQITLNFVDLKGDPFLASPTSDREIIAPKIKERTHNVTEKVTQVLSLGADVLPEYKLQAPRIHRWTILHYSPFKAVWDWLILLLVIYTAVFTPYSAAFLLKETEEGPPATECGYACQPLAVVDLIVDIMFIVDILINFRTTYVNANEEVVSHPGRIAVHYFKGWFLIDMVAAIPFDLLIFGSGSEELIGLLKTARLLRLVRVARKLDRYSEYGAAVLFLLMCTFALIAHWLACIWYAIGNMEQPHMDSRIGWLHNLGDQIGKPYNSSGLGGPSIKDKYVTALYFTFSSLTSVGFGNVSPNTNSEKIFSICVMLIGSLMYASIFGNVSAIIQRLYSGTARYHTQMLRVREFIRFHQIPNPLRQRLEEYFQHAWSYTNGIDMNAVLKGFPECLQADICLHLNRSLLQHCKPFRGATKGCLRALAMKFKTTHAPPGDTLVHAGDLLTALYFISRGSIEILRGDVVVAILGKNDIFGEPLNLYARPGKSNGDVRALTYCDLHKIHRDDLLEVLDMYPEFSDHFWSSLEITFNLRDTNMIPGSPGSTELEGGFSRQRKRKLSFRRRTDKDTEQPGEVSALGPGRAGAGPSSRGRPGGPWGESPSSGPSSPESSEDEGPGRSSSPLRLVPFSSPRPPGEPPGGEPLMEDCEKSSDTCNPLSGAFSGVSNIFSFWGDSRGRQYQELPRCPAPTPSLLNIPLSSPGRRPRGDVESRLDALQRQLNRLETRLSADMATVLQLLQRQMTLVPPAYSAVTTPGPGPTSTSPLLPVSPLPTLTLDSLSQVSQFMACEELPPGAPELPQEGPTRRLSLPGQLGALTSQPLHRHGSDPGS
# Test details: Inhibition of hERG at 10 uM relative to control
# Type: toxicity
The reader will find reported inhibition (INH) values listed item by item below.
Quote the value and follow it with the unit of measurement.

Consider the worked cases shown below.
[
  {
    "Compound": "COc1cc2c(OCCCN3[C@@H]4CC[C@H]3CN(C)C4)c3c(c(-c4ccc5c(c4)OCO5)c2cc1OC)C(=O)OC3",
    "inhibition (INH)": "72%"
  },
  {
    "Compound": "COc1cc2c(OCCCN3CCNC(=O)C3)c3c(c(-c4ccc5c(c4)OCO5)c2cc1OC)C(=O)OC3",
    "inhibition (INH)": "5%"
  },
  {
    "Compound": "COc1cc2c(OCCCN3CCOCC3)c3c(c(-c4ccc5c(c4)OCO5)c2cc1OC)C(=O)OC3",
    "inhibition (INH)": "11%"
  },
  {
    "Compound": "COc1cc2c(OCC(O)CN3CCN(C)CC3)c3c(c(-c4ccc5c(c4)OCO5)c2cc1OC)C(=O)OC3 (stereo not drawn)",
    "inhibition (INH)": "36%"
  },
  {
    "Compound": "COc1cc2c(OCCCN3CC4CC3CO4)c3c(c(-c4ccc5c(c4)OCO5)c2cc1OC)C(=O)OC3 (stereo not drawn)",
    "inhibition (INH)": "73%"
  }
]

Missing value: inhibition (INH), Voltage-gated inwardly rectifying potassium channel KCNH2 (Homo sapiens, UniProt Q12809), entry COc1cc2c(OCCCN3CC4CCC(C3)O4)c3c(c(-c4ccc5c(c4)OCO5)c2cc1OC)C(=O)OC3 . Fill in?
22%

Record COc1cc2c(OCCCN3CCN(C(C)=O)CC3)c3c(c(-c4ccc5c(c4)OCO5)c2cc1OC)C(=O)OC3 : what is its inhibition (INH) with Voltage-gated inwardly rectifying potassium channel KCNH2 (Homo sapiens, UniProt Q12809)?
11%

Lab note: need inhibition (INH) for COc1cc2c(OCCCN3[C@@H]4CC[C@H]3COC4)c3c(c(-c4ccc5c(c4)OCO5)c2cc1OC)C(=O)OC3 on Voltage-gated inwardly rectifying potassium channel KCNH2 (Homo sapiens, UniProt Q12809), anyone have it?
76%
